FYI, the data here is from ChEMBL document CHEMBL1154083.

# system under test: Sodium-dependent noradrenaline transporter (Homo sapiens, UniProt P23975)
# Sequence (P23975 whole entry): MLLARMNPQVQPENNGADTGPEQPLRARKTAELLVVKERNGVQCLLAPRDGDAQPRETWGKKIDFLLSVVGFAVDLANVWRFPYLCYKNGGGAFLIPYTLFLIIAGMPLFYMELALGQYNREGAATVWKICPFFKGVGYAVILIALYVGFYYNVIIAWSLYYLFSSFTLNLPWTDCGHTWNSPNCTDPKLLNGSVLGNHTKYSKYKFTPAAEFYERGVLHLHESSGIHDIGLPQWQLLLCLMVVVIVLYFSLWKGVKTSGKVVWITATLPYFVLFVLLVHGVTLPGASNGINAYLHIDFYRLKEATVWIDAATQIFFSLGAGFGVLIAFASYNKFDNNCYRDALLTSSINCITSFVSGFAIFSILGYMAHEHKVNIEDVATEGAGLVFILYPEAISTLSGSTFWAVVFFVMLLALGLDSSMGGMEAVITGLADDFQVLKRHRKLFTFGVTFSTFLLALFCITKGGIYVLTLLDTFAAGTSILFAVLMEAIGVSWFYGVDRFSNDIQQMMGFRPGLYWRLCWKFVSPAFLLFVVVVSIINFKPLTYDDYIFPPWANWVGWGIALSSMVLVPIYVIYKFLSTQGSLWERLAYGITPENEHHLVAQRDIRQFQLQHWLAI
Hi! Just check whether Ki is below 700 nM. Below gives fulfilled, equal or above gives not fulfilled.

COC(=O)[C@H]1[C@@H](c2ccc(SC(C)C)cc2)C[C@@H]2CC[C@H]1N2C; fulfilled
CCCN1C2CCC1[C@@H](C(=O)OC)[C@@H](c1ccc(SCC)cc1)C2 (some centres not stated); not fulfilled
COC(=O)[C@H]1[C@@H](c2ccc(SC)c(Br)c2)C[C@@H]2CC[C@H]1N2C; fulfilled
COC(=O)[C@@H]1C2CCC(C[C@@H]1c1ccc(SC)cc1)N2 (some centres not stated); fulfilled
C=CCN1C2CCC1[C@@H](C(=O)OC)[C@@H](c1ccc(SCC)cc1)C2 (some centres not stated); not fulfilled
CCSc1ccc([C@H]2CC3CCC([C@H]2C(=O)OC)N3CCCF)cc1 (some centres not stated); not fulfilled
COC(=O)[C@H]1[C@@H](c2ccc([S+](C)[O-])cc2)C[C@@H]2CC[C@H]1N2C (some centres not stated); fulfilled
COC(=O)[C@@H]1C2CCC(C[C@@H]1c1ccc(SC)cc1)N2CCCF (some centres not stated); not fulfilled
COC(=O)[C@H]1[C@@H](c2ccc(SC)cc2)C[C@@H]2CC[C@H]1N2C; fulfilled
COC(=O)[C@H]1[C@@H](c2ccc(SC(F)(F)F)cc2)C[C@@H]2CC[C@H]1N2C; not fulfilled
COC(=O)[C@H]1[C@@H](c2ccc(S(C)(=O)=O)cc2)C[C@@H]2CC[C@H]1N2C; not fulfilled
C=CCN1C2CCC1[C@@H](C(=O)OC)[C@@H](c1ccc(SC)cc1)C2 (some centres not stated); not fulfilled
CCSc1ccc([C@H]2CC3CCC(N3)[C@H]2C(=O)OC)cc1 (some centres not stated); fulfilled
CCCN1C2CCC1[C@@H](C(=O)OC)[C@@H](c1ccc(SC)cc1)C2 (some centres not stated); not fulfilled
CCSc1ccc([C@H]2C[C@@H]3CC[C@H]([C@H]2C(=O)OC)N3C)cc1; not fulfilled
COC(=O)[C@H]1[C@@H](c2ccc(OC)cc2)C[C@@H]2CC[C@H]1N2C; not fulfilled

---

pIC50: −log10 of the molar value.
In what follows, each item is paired with its pIC50 for Sodium-dependent dopamine transporter (Homo sapiens).
experimental endpoint: pIC50

COC(=O)[C@H]1[C@@H](c2ccc([S+](C)[O-])cc2)C[C@@H]2CC[C@H]1N2C (stereo not given in full); 7.04
CCSc1ccc([C@H]2C[C@@H]3CC[C@H]([C@H]2C(=O)OC)N3C)cc1; 6.63
COC(=O)[C@@H]1C2CCC(C[C@@H]1c1ccc(SC)cc1)N2 (stereo not given in full); 7.55
COC(=O)[C@@H]1C2CCC(C[C@@H]1c1ccc(SC)cc1)N2CCCF (stereo not given in full); 6.95
CCCN1C2CCC1[C@@H](C(=O)OC)[C@@H](c1ccc(SCC)cc1)C2 (stereo not given in full); 6.05
CCSc1ccc([C@H]2CC3CCC([C@H]2C(=O)OC)N3CCCF)cc1 (stereo not given in full); 5.92
COC(=O)[C@H]1[C@@H](c2ccc([S+](C)[O-])c(Br)c2)C[C@@H]2CC[C@H]1N2C (stereo not given in full); 7.12
COC(=O)[C@H]1[C@@H](c2ccc(SC(C)C)cc2)C[C@@H]2CC[C@H]1N2C; 7.80
C=CCN1C2CCC1[C@@H](C(=O)OC)[C@@H](c1ccc(SC)cc1)C2 (stereo not given in full); 7.15
